Recorded values, source patent US4868181A.

- tgt: alpha1 -adrenoceptors
- assay: [^3 H]-prazosin binding assay (affinity for alpha1-adrenoceptors)
- measurementContext: rat brain membranes, 0.2 nM [^3 H]-prazosin, 60 minutes at 25°
parameterMeasured: log10 of IC50 (log10 of the value in nM)
Please keep in mind that the values are log10 of IC50 expressed in nM.

* CCOc1cccc(C2C(C(=O)OC)=C(C)NC(C)=C2[N+](=O)[O-])c1OCCCCN1CCN(c2ccccc2OC)CC1 (centres unmarked) | 2.79
* COC(=O)C1=C(C)NC(C)=C([N+](=O)[O-])C1c1cc(Cl)ccc1OCCCCCN1CCN(c2ccccc2OC)CC1 (centres unmarked) | 2.80
* COC(=O)C1=C(C)NC(C)=C([N+](=O)[O-])C1c1ccccc1OCC=CCN1CCN(c2ccccc2OC)CC1 (centres unmarked) | 2.69
* COc1ccccc1N1CCN(CCCCOC(=O)C2=C(C)NC(C)=C([N+](=O)[O-])C2c2ccccc2C(F)(F)F)CC1 (centres unmarked) | 2.48
* CCOC(=O)C1=C(C)NC(C)=C([N+](=O)[O-])C1c1ccccc1OCCCCN1CCN(c2ccccc2OC)CC1 (centres unmarked) | 2.64
* COC(=O)C1=C(C)NC(C)=C([N+](=O)[O-])C1c1ccc(OCCCN2CCN(c3ccccc3OC)CC2)c([N+](=O)[O-])c1 (centres unmarked) | 2.64
* COC(=O)C1=C(C)NC(C)=C([N+](=O)[O-])C1c1cccc(OC)c1OC/C=C\CN1CCN(c2ccccc2OC)CC1 (centres unmarked) | 2.38
* COC(=O)C1=C(C)NC(C)=C([N+](=O)[O-])C1c1cccc(OC)c1OCC=CCN1CCN(c2ncccn2)CC1 (centres unmarked) | 3.91

Could I get log10 of IC50 for every one of these entries?
1. COC(=O)C1=C(C)NC(C)=C([N+](=O)[O-])C1c1ccccc1OCCCCN1CCN(c2ccccc2C)CC1 (centres unmarked)
2. COC(=O)C1=C(C)NC(C)=C([N+](=O)[O-])C1c1cccc(OCCCN2CCN(c3ncccn3)CC2)c1 (centres unmarked)
3. COC(=O)C1=C(C)NC(C)=C([N+](=O)[O-])C1c1cc(OC)ccc1OCCCCCN1CCN(c2ccccc2OC)CC1 (centres unmarked)
4. CCOC(=O)C1=C(C)NC(C)=C([N+](=O)[O-])C1c1cccc(OCCCN2CCN(c3ccccn3)CC2)c1 (centres unmarked)
5. COC(=O)C1=C(C)NC(C)=C([N+](=O)[O-])C1c1cc(Cl)ccc1OCCCCN1CCN(c2ccccc2OC)CC1 (centres unmarked)
6. CCOC(=O)C1=C(C)NC(C)=C([N+](=O)[O-])C1c1cccc(OCCCN2CCN(c3ccccc3OC)CC2)c1 (centres unmarked)
7. COC(=O)C1=C(C)NC(C)=C([N+](=O)[O-])C1c1ccccc1OCCCCN1CCN(c2ncccn2)CC1 (centres unmarked)

A)
1: 2.93; 2: 3.08; 3: 2.08; 4: 2.46; 5: 2.54; 6: 2.45; 7: 3.69

Could I get log10 of IC50 for every one of these entries?
1. COc1ccccc1N1CCN(CCCCOc2ccccc2C2C(C(=O)Nc3ccccc3)=C(C)NC(C)=C2[N+](=O)[O-])CC1 (centres unmarked)
2. COC(=O)C1=C(C)NC(C)=C([N+](=O)[O-])C1c1cccc(OCCCN2CCN(c3ccccn3)CC2)c1 (centres unmarked)

A)
1. 2.11
2. 2.00
